Record set: pIC50 | Protease (Human immunodeficiency virus 1) | literature, multiple sources.
pIC50: −log10 of the molar value.

{"columns": ["Molecule", "Censoring Sign", "pIC50"],
 "data": [
  ["CC(C)[C@H](NC(=O)[C@H](Cc1cccc2ccccc12)CS(=O)(=O)C(C)(C)C)C(=O)N[C@@H](Cc1cccc2c1OCO2)[C@@H](O)[C@H](O)[C@H](Cc1cccc2c1OCO2)NC(=O)[C@@H](NC(=O)[C@H](Cc1cccc2ccccc12)CS(=O)(=O)C(C)(C)C)C(C)C", "=", 9.40],
  ["COc1ccc(S(=O)(=O)N(CC(C)C)C[C@@H](O)[C@H](Cc2ccccc2)NC(=O)Cn2cnc3c(N)ncnc32)cc1", "=", 5.70],
  ["COc1ccc(S(=O)(=O)N(CC(C)C)C[C@H](O)[C@H](Cc2ccccc2)NC(=O)CN(CC(=O)N2CCOCC2)c2cccc(O)c2C)cc1", "<", 4.70],
  ["COc1ccc(S(=O)(=O)N(CC(C)C)C[C@@H](O)COc2ccc3occc3c2)cc1OC", "=", 3.89],
  ["N[C@H](C(=O)Nc1cncc(F)c1CC[C@@H]1CN[C@H](COC(=O)NCC(F)(F)F)CO1)[C@@H](c1ccc(F)cc1)c1cc(F)cc(F)c1", "=", 8.62],
  ["Cc1c(O)cccc1N(CC(=O)N[C@@H](Cc1ccccc1)[C@@H](O)CN(CC(C)C)S(=O)(=O)c1ccc(CO)cc1)CC(=O)N(C)C", "<", 4.70],
  ["CC1(C)CC[C@]2(C(=O)NCCCCCC(=O)NCC(=O)O)CC[C@]3(C)C(=CC[C@@H]4[C@@]5(C)CC[C@H](OC(=O)CCCC(=O)O)C(C)(C)[C@@H]5CC[C@]43C)[C@@H]2C1", "<", 4.30],
  ["CC(C)CN(C[C@@H](O)[C@H](Cc1ccccc1)NC(=O)Cn1cnc2c(Cl)ncnc21)S(=O)(=O)c1ccc([N+](=O)[O-])cc1", "=", 6.51],
  ["CC(C)c1nc(CN(C)C(=O)N[C@@H](CCN(C)C)C(=O)N[C@H](CC[C@H](Cc2ccccc2)NC(=O)OCc2cncs2)Cc2ccccc2)cs1", "<", 4.52],
  ["CC[C@H](C)[C@H](NC(=O)[C@@H](N)CO)C(=O)N[C@@H](C)C(=O)N[C@@]12NC(=O)[C@]3(O)C4C5CC(C6C5C3C61)C42 (stereo partly drawn)", "=", 5.00],
  ["CC(C)[C@H](N)C(=O)N[C@]1(Cc2ccccc2)CC[N+]2(CCC[C@H]2C(=O)NC(C)(C)C)C1[O-] (stereo partly drawn)", "=", 3.26],
  ["CC(C)CN(C[C@@H](O)[C@H](Cc1ccccc1)NC(=O)Cn1cnc2c(O)nc(N)nc21)S(=O)(=O)c1ccc([N+](=O)[O-])cc1", "=", 6.10],
  ["COCCN(CC(=O)N[C@@H](Cc1ccccc1)[C@H](O)CN(CC(C)C)S(=O)(=O)c1ccc2c(c1)OCO2)[C@H]1CCOC1", "=", 9.11]
]}

----------
Please find below IC50 data on Protease (Human immunodeficiency virus 1) compiled from the literature.

{"columns": ["Compound", "Censoring Sign", "IC50, nM"],
 "data": [
  ["CCC(=O)O[C@H]1CC[C@]2(C)[C@H]3CC=C4[C@@H]5CC(C)(C)CC[C@]5(C(=O)NCCCC(=O)N[C@@H](C)C(=O)O)CC[C@@]4(C)[C@]3(C)CC[C@H]2C1(C)C", ">", 50000],
  ["CCC[C@H](NC(=O)[C@H](Cc1cccc2ccccc12)CS(=O)(=O)C(C)(C)C)C(=O)N[C@@H](Cc1ccccc1)[C@@H](O)[C@H](O)[C@H](Cc1ccccc1)NC(=O)[C@H](CCC)NC(=O)[C@H](Cc1cccc2ccccc12)CS(=O)(=O)C(C)(C)C", "=", 0.398],
  ["N[C@H](C(=O)Nc1cncc(F)c1CC[C@@H]1CN[C@H](COC(=O)NCC(F)(F)F)CO1)C(c1ccccc1)c1ccccc1", "=", 9.9],
  ["O=C1N[C@@H](Cc2ccccc2)C([O-])[N+]2(CCCCC2)N1Cc1ccccc1 (stereo partly specified)", "=", 37200],
  ["CCc1ccccc1SC1=C(O)CC(COc2cccc3ccccc23)(c2ccccc2)OC1=O (racemic)", "=", 100],
  ["CCOc1ccc(OCC)c(SC2=C(O)CC(COc3ccc4ccccc4c3)(c3ccccc3)OC2=O)c1 (racemic)", "=", 9.2]
]}

----------
Hi, quick share: literature pIC50 data for Protease (Human immunodeficiency virus 1), several sources combined.
pIC50: −log10 of the molar value.

{"columns": ["Compound", "Censoring Sign", "pIC50"],
 "data": [
  ["COC(=O)CCCC#CC#C/C=C/CCCCCC/C=C/Br", "=", 5.00],
  ["CC(C)(CC(=O)O)CC(=O)O[C@H]1CC[C@]2(C)[C@H]3CC=C4[C@@H]5CC(C)(C)CC[C@]5(C(=O)NCCCCCC(=O)NCC(=O)O)CC[C@@]4(C)[C@]3(C)CC[C@H]2C1(C)C", "=", 4.41],
  ["CC(C)CN(C[C@@H](O)[C@H](Cc1ccccc1)NC(=O)CN([C@H]1CCOC1)S(C)(=O)=O)S(=O)(=O)c1ccc([N+](=O)[O-])cc1", "=", 6.54],
  ["C=CCOC(=O)N[C@]1(Cc2ccccc2)CC[N+]2(CCC[C@H]2C(=O)OC)C1[O-] (some centres not stated)", "<", 3.00],
  ["CC1(C)CC(=O)C2=C(C1)Nc1ccccc1N(C(=O)C(=O)N1c3ccccc3NC3=C(C(=O)CC(C)(C)C3)C1c1ccccc1)C2 (racemic)", "=", 7.00],
  ["CNCC[C@H](NC(=O)N(C)Cc1csc(C(C)C)n1)C(=O)N[C@H](CC[C@H](Cc1ccccc1)NC(=O)OCc1cncs1)Cc1ccccc1", "<", 4.52],
  ["CC1(C)CC[C@]2(C(=O)NCCCCCCCCCCC(=O)O)CC[C@]3(C)C(=CC[C@@H]4[C@@]5(C)CC[C@H](OC(=O)c6ccccc6)C(C)(C)[C@@H]5CC[C@]43C)[C@@H]2C1", "<", 4.30],
  ["CCCC(=O)O[C@H]1CC[C@]2(C)[C@H]3CC=C4[C@@H]5CC(C)(C)CC[C@]5(C(=O)NCCCC(=O)NCC(=O)O)CC[C@@]4(C)[C@]3(C)CC[C@H]2C1(C)C", "<", 4.30],
  ["COc1cc([C@@H]2Nc3ccccc3NC3=C2C(=O)C[C@@H](c2ccccc2)C3)cc(Cl)c1O (mixture of isomers)", "=", 5.37],
  ["Cc1c(O)cccc1N(CC(=O)N[C@@H](Cc1ccccc1)[C@@H](O)CN(CC(C)C)S(=O)(=O)c1ccc(N)cc1)CC(=O)N(C)C", "=", 5.23],
  ["CCCC(=O)O[C@H]1CC[C@]2(C)[C@H]3CC=C4[C@@H]5CC(C)(C)CC[C@]5(C(=O)NCCCCCC(=O)N[C@@H](C)C(=O)O)CC[C@@]4(C)[C@]3(C)CC[C@H]2C1(C)C", "=", 4.40],
  ["CC(C)CN(C[C@@H](O)[C@H](Cc1ccccc1)NC(=O)[C@]12CC[C@@H](C)[C@H](C)[C@H]1C1=CC[C@@H]3[C@@]4(C)CCC(=O)C(C)(C)[C@@H]4CC[C@@]3(C)[C@]1(C)CC2)S(=O)(=O)c1ccc(N)cc1", "=", 5.63]
]}

----------
We begin with pIC50 values for Protease (Human immunodeficiency virus 1), as collected from the published literature.
pIC50: −log10 of the molar value.

{"columns": ["Molecule", "Target Entity", "Censoring Sign", "pIC50"],
 "data": [
  ["CC(C)[C@H](NC(=O)CCCCCNC(=O)[C@]12CCC(C)(C)C[C@H]1C1=CC[C@@H]3[C@@]4(C)CC[C@H](OC(=O)c5ccccc5)C(C)(C)[C@@H]4CC[C@@]3(C)[C@]1(C)CC2)C(=O)O", "Protease (Human immunodeficiency virus 1)", "<", 4.30],
  ["CC(C)c1nc(CN(C)C(=O)N[C@@H](CCO)C(=O)N[C@H](CC[C@H](Cc2ccccc2)NC(=O)OCc2cncs2)Cc2ccccc2)cs1", "Protease (Human immunodeficiency virus 1)", "=", 7.41],
  ["CC1(C)CC[C@]2(C(=O)NCCCC(=O)O)CC[C@]3(C)C(=CC[C@@H]4[C@@]5(C)CC[C@H](OC(=O)CCCC(=O)O)C(C)(C)[C@@H]5CC[C@]43C)[C@@H]2C1", "Protease (Human immunodeficiency virus 1)", "=", 4.69],
  ["CC(C)CN(C[C@@H](O)[C@H](Cc1ccccc1)NC(=O)Cn1cccnc1=O)S(=O)(=O)c1ccc(N)cc1", "Protease (Human immunodeficiency virus 1)", "=", 6.90],
  ["O=C1OC(CSc2ccccc2)(c2ccccc2)CC(O)=C1Sc1ccccc1Cl (racemic)", "Protease (Human immunodeficiency virus 1)", "=", 7.15],
  ["CC(C)CN(C[C@@H](O)[C@H](Cc1ccccc1)NC(=O)CN(CC(=O)N1CCOCC1)[C@H]1CCOC1)S(=O)(=O)c1ccc(CO)cc1", "Protease (Human immunodeficiency virus 1)", "=", 6.96],
  ["CC(=O)O[C@@H]1[C@@H](O)[C@@H](O)[C@H](Oc2cc3c(=O)oc4c(O)c(O)cc5c(=O)oc(c2O)c3c45)O[C@H]1C", "Protease (Human immunodeficiency virus 1)", "=", 4.65],
  ["CCC[C@@H](CCC[C@@H](CO)N(CCC(C)C)S(=O)(=O)c1ccc(N)cc1)NC(=O)[C@@H](NC(=O)OC)C(c1ccccc1)c1ccccc1", "Protease (Human immunodeficiency virus 1)", "=", 10.00],
  ["COc1ccc(S(=O)(=O)N(CC(C)C)C[C@@H](O)[C@H](Cc2ccccc2)NC(=O)Cn2cnc3c(O)nc(N)nc32)cc1", "Protease (Human immunodeficiency virus 1)", "=", 7.10],
  ["CC(C)[C@@H](NC(=O)[C@]12CCC(C)(C)C[C@@H]1C1=CC[C@@H]3[C@@]4(C)CC[C@H](O)C(C)(C)[C@@H]4CC[C@@]3(C)[C@]1(C)CC2)C(=O)O", "Protease (Human immunodeficiency virus 1)", "=", 4.33],
  ["COc1ccc(S(=O)(=O)N(CC(C)C)C[C@@H](O)[C@H](Cc2ccccc2)NC(=O)Cn2cc(C)c(N)nc2=O)cc1", "Protease (Human immunodeficiency virus 1)", "=", 6.83],
  ["CCCC(=O)O[C@H]1CC[C@]2(C)[C@H]3CC=C4[C@@H]5CC(C)(C)CC[C@]5(C(=O)NCCCC(=O)N[C@@H](C)C(=O)O)CC[C@@]4(C)[C@]3(C)CC[C@H]2C1(C)C", "Protease (Human immunodeficiency virus 1)", "<", 4.30],
  ["CC(C)(CC(=O)O)CC(=O)O[C@H]1CC[C@]2(C)[C@H]3CC=C4[C@@H]5CC(C)(C)CC[C@]5(C(=O)NCCCC(=O)O)CC[C@@]4(C)[C@]3(C)CC[C@H]2C1(C)C", "Protease (Human immunodeficiency virus 1)", "=", 4.48]
]}
